B1: CRYL1 (parent)
chain: RNALENIRKEMKLLEQAGSLKGSL

Variants of: B1
Assay: protein stability index of a GFP-peptide fusion (GPS, HEK-293T) (PSI 1-6); higher = more stable;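 also: lentivirally expressed fusions sorted by FACS into six bins by GFP to DsRed ratio, PSI derived from sequencing read proportions per bin multiplied by bin number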
Settings: c terminus: a fixed tail appended
# label = y if protein stability index >= 4 else n

Sequence input: RNALENIRKEMKLLTQAGSLKGSL
Label value: n
//
Sequence input: RNALENIRKESKLLEQAGSLKGSL
Label value: y
//
Sequence input: RNALENIRKEMKLLNQAGSLKGSL
Label value: n
//
Sequence input: RNYLENIRKEMKLLEQAGSLKGSL
Label value: n
//
Sequence input: RNALENIRKEMKLLEQAGSLKNSL
Label value: n
//
Sequence input: RNALENSRKEMKLLEQAGSLKGSL
Label value: n
//
Sequence input: RNALENIRKEMSLLEQAGSLKGSL
Label value: n
//
Sequence input: ANALENIRKEMKLLEQAGSLKGSL
Label value: n
//
Sequence input: RNALENIRKEMKLLEQAGVLKGSL
Label value: n
//
Sequence input: RNALENIRKEMKLLEMAGSLKGSL
Label value: n
//
Sequence input: RNALENIRKEMKLLEQAGNLKGSL
Label value: n
//
Sequence input: RNALENIRKEMKLLEQAPSLKGSL
Label value: y
//
Sequence input: RNALENIRKEMKLLEQAGSLKGHL
Label value: n
//
Sequence input: RNALENIRKEMKLLEQAGSLDGSL
Label value: n
//
Sequence input: RNALENIRKEMKLLEQAGTLKGSL
Label value: n
//
Sequence input: RNALENIRKEMKLLEQAGSRKGSL
Label value: y
//
Sequence input: RNALENIRWEMKLLEQAGSLKGSL
Label value: n
//
Sequence input: DNALENIRKEMKLLEQAGSLKGSL
Label value: n
//
Sequence input: RNALENIRKEMKLLEQAGSLCGSL
Label value: n
